- Target or system: c-Src SH2
- Measurement description: SH2 binding enrichment of the phosphorylated peptide, bacterial display (enrichment ratio); higher = better substrate or ligand; peptides without Tyr show the background
Observed property: SH2 binding enrichment

{"columns": ["Biopolymer sequence", "SH2 binding enrichment"],
 "data": [
  ["KLQQWYREPRS [GPI_Y17_H20P]", 0.5]
]}

[a] ISSLLYELLEE [TRPC6_Y896_R895L]
[b] ESLRPYDVMDV [KCNQ2_Y562]
[c] PQAVTYAEVKH [LILRB4_Y360_K362E]
[d] EFLKNYFTDKA [DSG2_Y775_R773K]
[e] GGYNNYGYGSD [HNRNPH3_Y159_N163S]
// query List these items ordered by SH2 binding enrichment, big to small. Use the labels to give the requested order.
// result b, c, e, a, d
(b: 12.9, c: 2.73, e: 0.951, a: 0.576, d: 0.365)

[A] GGGCGYNRSSG [FUS_Y232_G230C]
[B] NFSKMYCNPDA [KNL1_Y489_A486S_YF]
// query Response body: label of entry with the larger SH2 binding enrichment; valid values A , B . Identify your selection by its label.
// result B
(B: 2.54, A: 0.531)

[P] AGQEDDDRLRP [RAC1_Y64_Y64D]
[Q] YGIAQYCCRMG [LRRK2_Y2023]
[R] SRDDYYETIAM [NPY1R_Y347_D346Y]
// query Put the sequences in ascending order of SH2 binding enrichment. Use the labels to give the requested order.
// result P, Q, R
(P: 0.528, Q: 0.806, R: 3.29)

----------
- Target or system: Grb2 SH2 (UniProt P62993)
- Measurement description: SH2 binding enrichment of the phosphorylated peptide, bacterial display (enrichment ratio); higher = better substrate or ligand; peptides without Tyr show the background
Observed property: SH2 binding enrichment

{"columns": ["Biopolymer sequence", "Target or system", "Test value"],
 "data": [
  ["VVEVTYDDVPI [FLNB_Y1308]", "Grb2 SH2 (UniProt P62993)", 0.819],
  ["ARRHPYFFAPE [ALB_Y172_Y174F]", "Grb2 SH2 (UniProt P62993)", 0.821],
  ["AGGTRYRYVSQ [UCN3_Y95_R91G]", "Grb2 SH2 (UniProt P62993)", 0.777]
]}

----------
- Target or system: Grb2 SH2 (UniProt P62993)
- Measurement description: SH2 binding enrichment of the phosphorylated peptide, bacterial display (enrichment ratio); higher = better substrate or ligand; peptides without Tyr show the background
Observed property: SH2 binding enrichment

{"columns": ["Biopolymer sequence", "Target or system", "SH2 binding enrichment"],
 "data": [
  ["KLSCSYSHWSA [C4BPA_Y470]", "Grb2 SH2 (UniProt P62993)", 0.894],
  ["DVLVEYQEEGR [GNS_Y416_G418E]", "Grb2 SH2 (UniProt P62993)", 0.894],
  ["NYRPGYNNFYN [USH2A_Y467]", "Grb2 SH2 (UniProt P62993)", 0.875]
]}

----------
- Target or system: EPHB1 (UniProt P54762)
- Sequence (P54762 whole entry, looked up): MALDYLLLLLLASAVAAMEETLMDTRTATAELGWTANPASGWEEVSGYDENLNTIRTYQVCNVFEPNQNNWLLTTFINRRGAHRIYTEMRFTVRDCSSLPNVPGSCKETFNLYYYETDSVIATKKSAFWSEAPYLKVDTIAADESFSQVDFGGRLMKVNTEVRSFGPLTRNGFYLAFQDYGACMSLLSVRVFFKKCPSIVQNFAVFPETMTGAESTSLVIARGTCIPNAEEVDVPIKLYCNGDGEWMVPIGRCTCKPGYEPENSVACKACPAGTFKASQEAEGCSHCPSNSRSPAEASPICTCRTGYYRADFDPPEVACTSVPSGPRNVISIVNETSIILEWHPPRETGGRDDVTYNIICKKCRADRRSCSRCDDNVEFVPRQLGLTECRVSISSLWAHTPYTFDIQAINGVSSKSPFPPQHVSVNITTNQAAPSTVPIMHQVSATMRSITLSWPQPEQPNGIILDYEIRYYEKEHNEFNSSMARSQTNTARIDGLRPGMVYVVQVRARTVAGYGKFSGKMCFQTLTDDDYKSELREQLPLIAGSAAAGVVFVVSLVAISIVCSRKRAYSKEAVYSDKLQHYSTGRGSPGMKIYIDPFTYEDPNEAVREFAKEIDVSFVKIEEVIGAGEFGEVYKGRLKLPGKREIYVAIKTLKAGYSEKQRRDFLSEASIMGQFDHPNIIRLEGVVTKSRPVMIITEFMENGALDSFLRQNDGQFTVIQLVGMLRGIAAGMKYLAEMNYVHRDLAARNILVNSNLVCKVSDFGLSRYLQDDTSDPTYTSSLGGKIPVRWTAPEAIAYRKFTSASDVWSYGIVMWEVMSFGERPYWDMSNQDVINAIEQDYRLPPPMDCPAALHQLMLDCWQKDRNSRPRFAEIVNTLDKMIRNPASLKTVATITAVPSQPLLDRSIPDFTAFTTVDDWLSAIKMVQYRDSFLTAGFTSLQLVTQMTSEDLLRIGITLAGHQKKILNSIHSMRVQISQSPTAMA
- Measurement description: phosphorylation enrichment, bacterial display (enrichment ratio); higher = better substrate or ligand; peptides without Tyr show the background
Some sequences, each annotated with its measured phosphorylation enrichment.
Just the number, please.

These solved cases illustrate the format of a correct answer.
{"columns": ["Biopolymer sequence", "Target or system", "phosphorylation enrichment"],
 "data": [
  ["GLETSYIEDNC [PAH_Y24_Q20L]", "EPHB1 (UniProt P54762)", 0.585],
  ["LYYYSYLLKNH [PTEN_Y180_V175L]", "EPHB1 (UniProt P54762)", 3.44]
]}

phosphorylation enrichment measured on SVTCTYTPALN [TP53_Y126_S127T] = 0.633

phosphorylation enrichment measured on RRIHSYRGHLW [VHL_Y112] = 2.21

phosphorylation enrichment measured on RQRTAYFSLNT [CDH1_Y68_D72N] = 0.661

phosphorylation enrichment measured on VIESSYQVAKA [CPT1B_Y534] = 0.454

phosphorylation enrichment measured on DEENFYQGSME [ASCC1_Y36_D34N] = 0.588

phosphorylation enrichment measured on ERRLIYASDPK [VPS13D_Y864_T865A] = 0.443

phosphorylation enrichment measured on CTTIHYNYKCN [TP53_Y234_M237K] = 0.433

phosphorylation enrichment measured on FQASFYRRGDR [LTK_Y677_R673Q_YF] = 0.443

phosphorylation enrichment measured on SVVVPYEPPEL [TP53_Y220_V225L] = 0.489

phosphorylation enrichment measured on AIYEGYALPHA [ACTC1_Y171_P166A] = 20.8

phosphorylation enrichment measured on AAGGRYDGLVG [HARS1_Y363] = 0.357

phosphorylation enrichment measured on KPGLKYVTFGN [GALNTL5_Y404_YF] = 0.351

phosphorylation enrichment measured on SVSVNYGDQVQ [GRAP_Y101] = 0.443

phosphorylation enrichment measured on PDKRIYQFTAS [SKAP2_Y197_A202S] = 0.491

phosphorylation enrichment measured on PQAVRYIFTID [DCX_Y103_G100A_YF] = 1.29

phosphorylation enrichment measured on FARNCYVAGQF [G6PD_Y107_S106C_YF] = 0.505

phosphorylation enrichment measured on TESALYGCTIL [MAP3K21_Y724_V728I] = 0.68

phosphorylation enrichment measured on IGLHAYGDQFR [IDH1_Y135_R132L_YF] = 0.413

phosphorylation enrichment measured on IRFSDYVEVAD [PHACTR1_Y525] = 1.42

phosphorylation enrichment measured on IYQASYYRRGD [LTK_Y676_R673Q] = 0.659

phosphorylation enrichment measured on TLKDVYDDGKY [RPS6KA3_Y483] = 0.51

phosphorylation enrichment measured on HTKKNYGNSSV [HDX_Y197_A193T] = 0.181

phosphorylation enrichment measured on LRFDSYSSFCN [SLC20A2_Y433_YF] = 0.736

----------
- Tested on: AncSZ
- Measurement description: phosphorylation enrichment, bacterial display (enrichment ratio); higher = better substrate or ligand; peptides without Tyr show the background
Observed property: phosphorylation enrichment
Just the number, please.

{"columns": ["Biopolymer sequence", "phosphorylation enrichment"],
 "data": [
  ["KPGLIYNKVNP [SPRED3_Y72_V71I]", 0.703],
  ["VIEYSYTSADG [DHCR7_Y382_C380Y]", 1.34],
  ["FGVVGYLAIMF [RNF175_Y155]", 1.04],
  ["ALAHKYDGGGG [HBB_Y146_H147D]", 0.985],
  ["KSAAIYNPVIY [RHO_Y301]", 0.758],
  ["MIHSAYALGGL [CPS1_Y590_R587H]", 0.53],
  ["MEVGQYFFVKC [CYBB_Y324_I325F]", 2.28],
  ["SVTCAYSPALN [TP53_Y126_T125A]", 1.26]
]}

Value (phosphorylation enrichment, AncSZ) for record YSIDHYLGKEM [G6PD_Y202_R198S] = 0.773

Value (phosphorylation enrichment, AncSZ) for record PDKRIYQFTAS [SKAP2_Y197_A202S] = 0.691

Value (phosphorylation enrichment, AncSZ) for record EKRDAYVSRLN [GSR_Y150] = 0.547

----------
Some sequences, each annotated with its measured phosphorylation enrichment.
- Target or system: MERTK (UniProt Q12866)
- Sequence (Q12866 whole entry, looked up): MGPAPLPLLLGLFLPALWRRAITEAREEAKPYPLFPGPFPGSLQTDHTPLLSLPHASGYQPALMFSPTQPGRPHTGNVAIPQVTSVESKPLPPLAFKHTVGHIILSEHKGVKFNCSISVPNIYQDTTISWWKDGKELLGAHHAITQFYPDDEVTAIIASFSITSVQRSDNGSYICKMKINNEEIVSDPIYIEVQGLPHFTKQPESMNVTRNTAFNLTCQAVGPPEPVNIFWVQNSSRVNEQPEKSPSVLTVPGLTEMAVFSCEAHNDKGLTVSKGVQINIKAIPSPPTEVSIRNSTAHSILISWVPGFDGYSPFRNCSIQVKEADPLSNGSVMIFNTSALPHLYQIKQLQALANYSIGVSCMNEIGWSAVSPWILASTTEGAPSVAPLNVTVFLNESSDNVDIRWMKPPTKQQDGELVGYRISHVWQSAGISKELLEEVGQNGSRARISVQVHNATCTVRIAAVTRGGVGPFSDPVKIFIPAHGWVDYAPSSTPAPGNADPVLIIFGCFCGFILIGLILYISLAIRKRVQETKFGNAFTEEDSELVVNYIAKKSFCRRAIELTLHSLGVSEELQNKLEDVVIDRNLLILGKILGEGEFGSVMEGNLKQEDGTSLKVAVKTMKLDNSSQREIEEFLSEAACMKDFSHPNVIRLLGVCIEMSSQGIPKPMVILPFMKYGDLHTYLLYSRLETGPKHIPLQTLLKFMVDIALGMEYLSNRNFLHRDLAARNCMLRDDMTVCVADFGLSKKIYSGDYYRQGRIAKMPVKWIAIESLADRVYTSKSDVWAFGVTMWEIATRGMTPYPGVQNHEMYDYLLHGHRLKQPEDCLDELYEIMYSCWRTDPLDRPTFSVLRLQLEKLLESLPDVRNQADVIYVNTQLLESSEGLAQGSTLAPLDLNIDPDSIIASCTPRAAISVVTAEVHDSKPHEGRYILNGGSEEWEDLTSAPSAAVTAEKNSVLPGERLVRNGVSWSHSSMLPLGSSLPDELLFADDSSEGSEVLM
- Measurement description: phosphorylation enrichment, bacterial display (enrichment ratio); higher = better substrate or ligand; peptides without Tyr show the background
Just the number, please.

{"columns": ["Biopolymer sequence", "Target or system", "Observed property", "Test value"],
 "data": [
  ["ATATEYHTTSH [SLC4A1_Y46_D45E]", "MERTK (UniProt Q12866)", "phosphorylation enrichment", 0.395],
  ["LRAGVYHEKDQ [DNM2_Y626_P627H]", "MERTK (UniProt Q12866)", "phosphorylation enrichment", 0.491],
  ["DFPIGYPSFLA [TBCK_Y153_YF]", "MERTK (UniProt Q12866)", "phosphorylation enrichment", 0.37],
  ["SVVVPYEPPDV [TP53_Y220_E224D]", "MERTK (UniProt Q12866)", "phosphorylation enrichment", 0.337]
]}

phosphorylation enrichment measured on FADGVYQALEE [DUOX2_Y70_YF] = 1.38

----------
- Target or system: c-Src SH2
- Measurement description: SH2 binding enrichment of the phosphorylated peptide, bacterial display (enrichment ratio); higher = better substrate or ligand; peptides without Tyr show the background
Observed property: SH2 binding enrichment

{"columns": ["Biopolymer sequence", "Observed property", "Test value"],
 "data": [
  ["VDHFGYTKDDK [APOB_Y740]", "SH2 binding enrichment", 0.592],
  ["KELAKYYKLHH [AK7_Y390_N389K]", "SH2 binding enrichment", 0.782],
  ["RREWYYEVIIV [BACE1_Y260]", "SH2 binding enrichment", 0.545],
  ["KPGVNYFFRVS", "SH2 binding enrichment", 0.463],
  ["DLVSEYQQFQD [TUBB3_Y422_YF]", "SH2 binding enrichment", 0.598],
  ["IRFSDYVEVAD [PHACTR1_Y525]", "SH2 binding enrichment", 0.58]
]}
